# experimental-system: cathepsin B (Rattus norvegicus)
# Sequence (P00787 129-333 limits assumed): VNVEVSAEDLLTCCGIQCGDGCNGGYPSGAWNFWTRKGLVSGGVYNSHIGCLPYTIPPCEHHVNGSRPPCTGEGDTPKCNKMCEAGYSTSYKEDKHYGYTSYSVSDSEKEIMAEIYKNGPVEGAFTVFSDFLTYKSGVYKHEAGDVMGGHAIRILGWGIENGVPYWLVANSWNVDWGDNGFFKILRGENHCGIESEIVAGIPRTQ
# Sequence (P00787 80-126 limits assumed): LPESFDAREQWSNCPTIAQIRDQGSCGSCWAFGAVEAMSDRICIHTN
Structures can show the parent of a compound that is named as a salt.
assay-metric: pIC50
Answers are plain numbers, as −log10 of the molar value.

Guide cases for pIC50, answers given:
molecule	assay-metric	measured
NCCCC[C@H](NC(=O)[C@H]1O[C@@H]1C(=O)N[C@@H](Cc1ccccc1)C(N)=O)C(=O)N1CCc2ccccc21 [Example 45, hydrochloride]	pIC50	4.40
CCCNC(=O)[C@H](Cc1ccccc1)NC(=O)[C@H]1O[C@@H]1C(=O)N[C@@H](CCCCN)C(=O)Nc1cccc2ccccc12 [Example 51, hydrochloride]	pIC50	5.07

Fill in: pIC50 of COc1ccccc1NC(=O)[C@H](CCCCN)NC(=O)[C@H]1O[C@@H]1C(=O)N[C@@H](Cc1ccccc1)C(=O)NCCc1ccccc1 [Example 39, hydrochloride] is ___
4.92
